# Tested on: A549
# test method notes: Cell cycle arrest in human A549 cells assessed as accumulation at sub-G0 phase at 15 nM after 24 hrs by propidium iodide staining based flow cytometry (reference value: 2 +/- 1%)
# Format: functional
# Activity values compiled below
Your answer should be a plain number; it is taken to be in %.

Some entries whose results are on file:
compound string | Activity (%)
COc1cc2c(c(OC)c1OC)-c1ccc(OC)c(=O)cc1[C@@H](NC(=O)c1ccc(Cl)cc1)CC2 | 2
COc1cc2c(c(OC)c1OC)-c1ccc(OC)c(=O)cc1[C@@H](NC(=O)c1ccccc1Cl)CC2 | 3
COc1cc2c(c(OC)c1OC)-c1ccc(OC)c(=O)cc1[C@@H](NC(=O)CCl)CC2 | 2

Shifting focus to the compound that follows.
Q: What value of Activity has been reported for the following compound? COc1cc2c(c(OC)c1OC)-c1ccc(OC)c(=O)cc1[C@@H](NC(=O)CBr)CC2
A: 3
